- System: Vero E6 infected with SARS-CoV-2
- MEASUREMENT_DESCRIPTION: inhibition of SARS-CoV-2 cytopathic effect; higher = more antiviral protection, active = above 15
- RUN_PARAMETERS: 10000 nM; 48 h
// inhibition of SARS-CoV-2 cytopathic effect lookup, one value per entry
The reply should be a number in %, with the unit left off.

Examples with their reported inhibition of SARS-CoV-2 cytopathic effect follow.
>  <MOLECULE>
CCCCCCCC/C=C/CCCCCCCC(=O)OC[C@H]1O[C@@H](n2ccc(N)nc2=O)C(F)(F)[C@@H]1O [gemcitabine-elaidate]

>  <REPORTED>
3

$$$$
>  <MOLECULE>
Nc1ccccc1NC(=O)c1ccc(CNc2nccc(-c3cccnc3)n2)cc1

>  <REPORTED>
-0.45

$$$$
>  <MOLECULE>
CCOC(=O)c1c(/C(C#N)=C\N)c2ccc(Cl)c(Cl)c2n1C

>  <REPORTED>
-2.18

$$$$
>  <MOLECULE>
O=C(OC(C(F)(F)F)C(F)(F)F)N1CCC(C(O)(c2ccc3c(c2)OCO3)c2ccc3c(c2)OCO3)CC1

>  <REPORTED>
0.49

$$$$

Enquiry: I would be grateful if you could share the reported inhibition of SARS-CoV-2 cytopathic effect for O=C(O)CCCc1ccc(N(CCCl)CCCl)cc1 .
Return: -0.16

Enquiry: Now the molecule O=C(NNc1nc2cc(F)ccc2n2cccc12)c1cnccn1
Return: -4.33
